experiment: Pharmacokinetics and tissue distribution in CD-1 mice; assay type: in vivo; details: female, mouse, heart, IP 10 mg/kg
measured-property: Tmax (min)
Give bare numbers, in min.

Q. Return the recorded Tmax value; entry: O=C1C(NCc2ccccc2)=CC2=NCCc3c[nH]c1c32
A. 4.8

###

assay: Pharmacokinetics and tissue distribution in CD-1 mice; format: in vivo; conditions: female, mouse, kidneys, IV 5 mg/kg
measured-property: Cmax (ng/mL)
Answers are plain numbers, in ng/mL.

Q. Return the recorded Cmax value; entry: O=C1C(NCc2ccccc2)=CC2=NCCc3c[nH]c1c32
A. 9680

###

assay: Pharmacokinetics and tissue distribution in CD-1 mice; format: in vivo; conditions: female, mouse, plasma, IV 5 mg/kg
measured-property: clearance (L/h/kg)
Answers are plain numbers, in L/h/kg.

Q. Return the recorded clearance value; entry: O=C1C(NCc2ccccc2)=CC2=NCCc3c[nH]c1c32 [BA-TPQ]
A. 492

###

test: Pharmacokinetics and tissue distribution in CD-1 mice; type: in vivo; details: female, ICR/CD-1, mouse, lungs, IV 5 mg/kg
measured-property: AUC (ng·h/mL)
Numbers only, in ng·h/mL.

Q. Return the recorded AUC value; entry: O=C1C(NCc2ccccc2)=CC2=NCCc3c[nH]c1c32
A. 4980

###

test: Pharmacokinetics and tissue distribution in CD-1 mice; type: in vivo; conditions: female, ICR/CD-1, mouse, lungs, IP 10 mg/kg
measured-property: Cmax (ng/mL)
Answers are plain numbers, in ng/mL.

Q. Return the recorded Cmax value; entry: O=C1C(NCc2ccccc2)=CC2=NCCc3c[nH]c1c32
A. 12400

###

experiment: Pharmacokinetics and tissue distribution in nude mice; assay type: in vivo; details: female, nude (nu/nu), mouse, lungs, IP 10 mg/kg
measured-property: half-life (min)
Numbers only, in min.

Q. Return the recorded half-life value; entry: O=C1C(NCc2ccccc2)=CC2=NCCc3c[nH]c1c32
A. 35.4

###

experiment: Pharmacokinetics and tissue distribution in nude mice; type: in vivo; details: female, nude (nu/nu), mouse, brain, IP 10 mg/kg
measured-property: AUC (ng·h/mL)
Give bare numbers, in ng·h/mL.

Q. Return the recorded AUC value; entry: O=C1C(NCc2ccccc2)=CC2=NCCc3c[nH]c1c32
A. 770

###

test: Pharmacokinetics and tissue distribution in nude mice; format: in vivo; conditions: female, nude (nu/nu), mouse, liver, IP 10 mg/kg
measured-property: AUC (ng·h/mL)
Numbers only, in ng·h/mL.

Q. Return the recorded AUC value; entry: O=C1C(NCc2ccccc2)=CC2=NCCc3c[nH]c1c32
A. 2760

###

assay: Pharmacokinetics and tissue distribution in nude mice; format: in vivo; details: female, nude (nu/nu), mouse, brain, IP 10 mg/kg
measured-property: Tmax (h)
Answers are plain numbers, in h.

Q. Return the recorded Tmax value; entry: O=C1C(NCc2ccccc2)=CC2=NCCc3c[nH]c1c32
A. 1

###

assay: Pharmacokinetics and tissue distribution in CD-1 mice; assay type: in vivo; settings: female, ICR/CD-1, mouse, lungs, IP 10 mg/kg
measured-property: Tmax (min)
Give bare numbers, in min.

Q. Return the recorded Tmax value; entry: O=C1C(NCc2ccccc2)=CC2=NCCc3c[nH]c1c32
A. 4.8

###

test: Pharmacokinetics and tissue distribution in CD-1 mice; assay type: in vivo; details: female, mouse, brain, IV 5 mg/kg
measured-property: AUC (ng·h/mL)
Answers are plain numbers, in ng·h/mL.

Q. Return the recorded AUC value; entry: O=C1C(NCc2ccccc2)=CC2=NCCc3c[nH]c1c32
A. 220

###

assay: Pharmacokinetics and tissue distribution in CD-1 mice; type: in vivo; conditions: female, mouse, lungs, IV 5 mg/kg
measured-property: Cmax (ng/mL)
Answers are plain numbers, in ng/mL.

Q. Return the recorded Cmax value; entry: O=C1C(NCc2ccccc2)=CC2=NCCc3c[nH]c1c32 [BA-TPQ]
A. 13000

###

assay: Pharmacokinetics and tissue distribution in nude mice; type: in vivo; settings: female, nude (nu/nu), mouse, heart, IV 5 mg/kg
measured-property: AUC

Q. Return the recorded AUC value; entry: O=C1C(NCc2ccccc2)=CC2=NCCc3c[nH]c1c32
A. 6.37 µg·h/mL

###

test: Pharmacokinetics and tissue distribution in nude mice; type: in vivo; conditions: female, nude (nu/nu), mouse, kidneys, IP 10 mg/kg
measured-property: Tmax (min)
Answers are plain numbers, in min.

Q. Return the recorded Tmax value; entry: O=C1C(NCc2ccccc2)=CC2=NCCc3c[nH]c1c32
A. 30
